- Tested on: ACHN renal
- TEST: NCI tumour cell line growth inhibition, 48 h
PROPERTY LABEL: TGI (µM)

• O=C1C=CC(=O)c2c1ccc1c3ccccc3n(-c3ccccn3)c21 = 35.6
• Nc1c(C(=O)Nc2ccccc2)sc2nc3c(cc12)CCCCCC3 = 14
• Cn1c(C(N)=O)cc2c1-c1nc(Nc3ccccc3)ncc1CCC2 = 50.5
• O=C1c2ccccc2-c2c1c1ccccc1c(=O)n2CCCNCCCn1c2c(c3ccccc3c1=O)C(=O)c1ccccc1-2 = 8.81

----------
- Tested on: HOP-92 NSCLC
- TEST: NCI tumour cell line growth inhibition, 48 h
PROPERTY LABEL: GI50

* CC(C)C[C@H](NC(=O)[C@H](Cc1ccccc1)n1ccc(N2CCCCC2)cc1=O)B(O)O | 1340 nM
* O=C(Nc1ccc(-c2nc3cc4ccccc4cc3[nH]2)cc1)c1cccc(Br)c1 | 4000 nM
* O=[N+]([O-])c1ccc(N2CCN(Cc3ccccc3)CC2)c2c1no[n+]2[O-] | 1070 nM
* CCc1ccc(-c2nnc(COc3ccc(-c4nc5ccc(C)cc5[nH]4)cc3OC)o2)cc1 | 2070 nM
* COc1cccc(-c2nn(-c3ccccc3)cc2-c2ccnc(NCCNS(=O)(=O)c3ccc(Cl)cc3)c2)c1 | 2460 nM
* Cn1c(C(N)=O)cc2c1-c1nc(Nc3ccccc3)ncc1CCC2 | 1470 nM
* CN(C)CCNC(=O)c1ccc(Nc2nc3ccccc3c3occc23)cc1 | 1800 nM
* CN1CCN(Cc2ccc(-c3cc4ncnc(Nc5ccc(OCc6cccc(F)c6)c(Cl)c5)c4s3)o2)CC1 | 2760 nM
* CC1=C(C)C(=O)c2c(c(C(=O)c3ccccc3)c3nc4ccccc4n3c2C)C1=O | 26000 nM
* Oc1ccc(C(c2ccccc2)(c2ccccc2)c2ccccc2)cc1 | 17800 nM
* Cc1ccc(Nc2nc(NCCO)c3ccccc3n2)cc1C | 1970 nM
* O=S(=O)([O-])[O-].[OH3+].[OH3+].[OH3+].[Ru+2].c1ccccc1 | > 100000 nM
* COc1ccc(CN2C(=O)/C(=C\c3cc(OC)c(OC)c(OC)c3)c3cc(OC)ccc32)cc1 | 1210 nM

----------
- Tested on: ACHN renal
- TEST: NCI tumour cell line growth inhibition, 48 h
Each entry below carries its recorded TGI.
PROPERTY LABEL: TGI

* CN(N=O)C(=O)Nc1c[nH]c(=O)[nH]c1=O | > 100 µM
* COc1cccc(-c2nn(-c3ccccc3)cc2-c2ccnc(NCCNS(=O)(=O)c3ccc(Cl)cc3)c2)c1 | > 100 µM
* CCN(CC)c1ccc(/C=C(\C#N)c2nc(N)nc(N3N=C(C)CC3(C)C)n2)cc1 | 27.9 µM
* Cc1cc2nc3n[nH]c(N)c3nc2cc1C | > 100 µM
* CC(C)C(C(=O)O)N(CC1(O)OCC(O)C(O)C1O)N=O (stereo not given) | > 100 µM
* C/C(=N/NC(=S)Nc1ccccc1Cl)c1ccccn1 | 8.59 µM
* Cc1[nH]c2ncn3nc(C(Cl)(Cl)Cl)nc3c2c1Cc1ccccc1 | > 100 µM
* CN(C)c1nc(N(C)C)nc(N(C)C)n1 | > 150 µM
* COc1c(CC=C(C)C)c(O)c(C(CC(C)C)c2c(O)c(C(C)=O)c(O)c3c2OC(C(C)(C)O)C3)c(O)c1C(C)=O (stereo not given) | > 12.5 µM
* CC1=C(/C=C/C(C)=C/C=C/C(C)=C/C(=O)OCC2OC(n3cc(F)c(=O)[nH]c3=O)CC2OC(=O)/C=C(C)/C=C/C=C(C)/C=C/C2=C(C)CCCC2(C)C)C(C)(C)CCC1 (stereo not given) | > 48.3 µM
* CN1CCN(Cc2ccc(-c3cc4ncnc(Nc5ccc(OCc6cccc(F)c6)c(Cl)c5)c4s3)o2)CC1 | 6.95 µM
* S=c1ssc2c3ssc(=S)c3n(Cc3ccccc3)c12 | > 100 µM
* CCC1=C(C)/C(=C/c2[nH]c(C)c(C(=O)CCCCC(=O)OC)c2C)N=C1c1ccc[nH]1 | 31.1 µM
* CC1=CC=NN2C(=O)[C@H](C)C2C1 (stereo not given in full) | > 100 µM
* CN(C)CCNC(=O)c1ccc(Nc2nc3ccccc3c3occc23)cc1 | 7.56 µM
* COc1cc(NS(C)(=O)=O)ccc1NCc1cnc2ccc3[nH]c(C)ccc3c12 | > 100 µM
* Clc1ccc(N=C/C=C/Nc2ccc(Cl)cn2)nc1 | 25.1 µM
* CC(C)=CCC[C@]1(C)CC[C@]2(C)C3CCC(=C(C)C)[C@@H](CCCO)[C@]3(C)CC[C@@]2(C)C1 (stereo not given in full) | > 100 µM
* Cc1ccc(/C=C2\CN(C)CC3=C2OC(N)=C(C#N)C3c2ccc(C)cc2)cc1 (stereo not given) | 50 µM
* Cc1ccc(C)c(NC(=O)C(=O)C2C(=O)C3=C(CC2(C)C)Nc2ccccc2S3)c1 (stereo not given) | > 100 µM

----------
Each entry below carries its recorded TGI.
- Test system: SN12C renal
- TEST: NCI tumour cell line growth inhibition, 48 h
PROPERTY LABEL: TGI

- CC(O)C1OC(O)C2OC(C)(C)OC12 (stereo unspecified): > 100 µM
- Cn1ncc(=S)[nH]c1=S: > 100 µM
- COc1ccc(OC)c(C2CCc3nc4nc(N)nc(N)c4cc3C2)c1 (stereo unspecified): 3.33 µM
- CC(C)(C)OC(=O)[N+](=N)C(=O)C1CCC(=O)N1C(=O)OCc1ccccc1 (stereo unspecified): > 100 µM
- OC1(c2ccccc2)CC2CCC(C1)N2CCc1ccccc1 (stereo unspecified): > 100 µM
- O=C(OCCN=C1c2ccccc2CCc2ccccc21)c1cc([N+](=O)[O-])cc([N+](=O)[O-])c1: > 31.6 µM

----------
- Tested on: DMS 273 small cell lung
- TEST: NCI tumour cell line growth inhibition, 48 h
PROPERTY LABEL: TGI

• CCN1C(=O)C/C(=C\C(C)=O)Nc2ccccc21 = > 100 µM
• COc1cc(Nc2cnc3cc(C(F)(F)F)ccc3n2)cc(OC)c1OC = > 100 µM
• COc1ccc2[nH]cc(CCNC(C)=O)c2c1 = > 100 µM
• CCCCCC(CN1CCOCC1)C(=O)/C=C/c1ccccc1 (stereo not drawn) = 6.1 µM
• C=C1C(=O)O[C@@H]2[C@H]3O[C@]3(C)CCC=C(C)CC[C@@H]12 = > 60.3 µM
• CC1=C2C(O)C(C(C)C(=O)NCC(C)C)CCC2(C)C=CC1=O (stereo not drawn) = > 100 µM
• O=S(=O)([O-])[O-].[OH3+].[OH3+].[OH3+].[Ru+2].c1ccccc1 = > 100 µM
• NC(=S)/N=C/c1c(O)c2ccccc2oc1=O = > 100 µM

----------
- Test system: IGROV1 ovarian
- TEST: NCI tumour cell line growth inhibition, 48 h
Each entry below carries its recorded GI50.
PROPERTY LABEL: GI50

- O=S(=O)([O-])[O-].[OH3+].[OH3+].[OH3+].[Ru+2].c1ccccc1: > 100 µM
- COc1ccc(CN2C(=O)/C(=C\c3cc(OC)c(OC)c(OC)c3)c3cc(OC)ccc32)cc1: 1.8 µM
- Cn1ccnc1C(=O)/C=C/c1ccc(CC(=O)Nc2ccc(Cl)cc2)cc1: 5.27 µM
- Nc1ccccc1C#CC#Cc1ccccc1N: 18.6 µM
- CS(=O)(=O)c1ccc(Oc2cc(F)cc(C#N)c2)c2c1[C@H](O)[C@H](F)[C@@H]2F: > 100 µM
- Cn1c(C(N)=O)cc2c1-c1nc(Nc3ccccc3)ncc1CCC2: 3.87 µM
- CC1=C(C)C(=O)c2c(c(C(=O)c3ccccc3)c3nc4ccccc4n3c2C)C1=O: 55.2 µM
- O=C(Nc1ccc(S(=O)(=O)Nc2nccs2)cc1)c1cccnc1Nc1cccc(Cl)c1: 15.4 µM
- C=C1C(=O)O[C@H]2[C@H]1CC/C(COC(=O)C(=O)c1c[nH]c3ccccc13)=C\CC[C@@]1(C)O[C@@H]21: 2.11 µM

----------
Each entry below carries its recorded TGI.
- System: SW-620 colon
- TEST: NCI tumour cell line growth inhibition, 48 h
Where a SMILES comes first, the peptide text is derived from it.
PROPERTY LABEL: TGI

• CN1CCN(Cc2ccc(-c3cc4ncnc(Nc5ccc(OCc6cccc(F)c6)c(Cl)c5)c4s3)o2)CC1 = 8.64 µM
• C=CC1(C)CCC(C(C)C(=O)C(C=C(C)C)OC(C)=O)C12C(=O)Oc1ccccc1C2=O (stereo not given) = > 100 µM
• CC1NC(=O)CNC(=O)CNC(=O)C(Cc2ccc(O)cc2)NC(=O)C(C(C)C)NC(=O)C(C)NC1=O (stereo not given) (cyclo(GGAAVY); configuration not given here) = > 100 µM
• Cn1cc(C(=O)c2nccc3c2cnc2ccccc23)ccc1=O = > 100 µM
• COc1cc(Nc2cnc3cc(C(F)(F)F)ccc3n2)cc(OC)c1OC = > 100 µM

The measurements presented in this section are drawn from PubChem BioAssay (NCI).
